// reported Kd per item
Biological target: T1, cynomolgus IL-18BP (cynomolgus monkey)
T1 construct: also called cyno IL-18BP; cyIL-18BP
T1 chain: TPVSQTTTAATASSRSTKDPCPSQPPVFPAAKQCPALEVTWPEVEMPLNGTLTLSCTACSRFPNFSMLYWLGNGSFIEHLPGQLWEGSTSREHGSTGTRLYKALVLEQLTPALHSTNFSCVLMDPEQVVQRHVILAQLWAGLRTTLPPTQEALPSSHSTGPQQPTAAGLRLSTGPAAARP
Assay: BLI, apparent KD
metricName: Kd (nM)

[[record]]
binder = "SA301a HC-Y50I (antibody, name in Kabat numbering, V domains shown, IgG1 kappa) VH: QVQLQESGPGLVKPSQTLSLTCTVSGYSITSDYNSHWIRQPPGKGLEWIGIIHYSGSTNYNPSLKSRVTISRDTSKNQFSLKLSSVTAADTAVYYCARNYGSIYVNYFDYWGQGTLVTVSS VL: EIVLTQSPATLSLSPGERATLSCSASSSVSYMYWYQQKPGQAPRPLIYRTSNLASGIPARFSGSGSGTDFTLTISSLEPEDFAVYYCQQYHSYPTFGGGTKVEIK"
metricname = "Kd"
testresult = 6.42

[[record]]
binder = "SA301a HC-H52N (antibody, name in Kabat numbering, V domains shown, IgG1 kappa) VH: QVQLQESGPGLVKPSQTLSLTCTVSGYSITSDYNSHWIRQPPGKGLEWIGYINYSGSTNYNPSLKSRVTISRDTSKNQFSLKLSSVTAADTAVYYCARNYGSIYVNYFDYWGQGTLVTVSS VL: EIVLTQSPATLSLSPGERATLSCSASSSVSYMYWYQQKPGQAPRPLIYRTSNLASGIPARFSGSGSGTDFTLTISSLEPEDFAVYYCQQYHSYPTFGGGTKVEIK"
metricname = "Kd"
testresult = 2.83

[[record]]
binder = "SA301a HC-I51Y (antibody, name in Kabat numbering, V domains shown, IgG1 kappa) VH: QVQLQESGPGLVKPSQTLSLTCTVSGYSITSDYNSHWIRQPPGKGLEWIGYYHYSGSTNYNPSLKSRVTISRDTSKNQFSLKLSSVTAADTAVYYCARNYGSIYVNYFDYWGQGTLVTVSS VL: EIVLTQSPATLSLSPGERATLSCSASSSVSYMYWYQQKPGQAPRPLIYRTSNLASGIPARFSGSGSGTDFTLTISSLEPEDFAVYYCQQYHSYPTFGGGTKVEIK"
metricname = "Kd"
testresult = 1.27

[[record]]
binder = "SA301a HC-I51P (antibody, name in Kabat numbering, V domains shown, IgG1 kappa) VH: QVQLQESGPGLVKPSQTLSLTCTVSGYSITSDYNSHWIRQPPGKGLEWIGYPHYSGSTNYNPSLKSRVTISRDTSKNQFSLKLSSVTAADTAVYYCARNYGSIYVNYFDYWGQGTLVTVSS VL: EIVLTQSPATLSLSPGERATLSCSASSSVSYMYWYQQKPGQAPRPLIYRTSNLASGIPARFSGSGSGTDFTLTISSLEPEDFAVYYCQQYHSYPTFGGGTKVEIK"
metricname = "Kd"
testresult = 1.93

[[record]]
binder = "SA301a HC-Y50E (antibody, name in Kabat numbering, V domains shown, IgG1 kappa) VH: QVQLQESGPGLVKPSQTLSLTCTVSGYSITSDYNSHWIRQPPGKGLEWIGEIHYSGSTNYNPSLKSRVTISRDTSKNQFSLKLSSVTAADTAVYYCARNYGSIYVNYFDYWGQGTLVTVSS VL: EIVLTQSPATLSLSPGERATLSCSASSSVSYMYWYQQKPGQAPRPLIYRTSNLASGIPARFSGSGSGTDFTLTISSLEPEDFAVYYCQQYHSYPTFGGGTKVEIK"
metricname = "Kd"
testresult = 8.97

[[record]]
binder = "SA301a HC-I51R (antibody, name in Kabat numbering, V domains shown, IgG1 kappa) VH: QVQLQESGPGLVKPSQTLSLTCTVSGYSITSDYNSHWIRQPPGKGLEWIGYRHYSGSTNYNPSLKSRVTISRDTSKNQFSLKLSSVTAADTAVYYCARNYGSIYVNYFDYWGQGTLVTVSS VL: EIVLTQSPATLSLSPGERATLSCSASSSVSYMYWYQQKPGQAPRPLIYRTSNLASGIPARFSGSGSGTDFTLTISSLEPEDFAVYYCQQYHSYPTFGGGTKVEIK"
metricname = "Kd"
testresult = 1.57

[[record]]
binder = "SA301a HC-I51D (antibody, name in Kabat numbering, V domains shown, IgG1 kappa) VH: QVQLQESGPGLVKPSQTLSLTCTVSGYSITSDYNSHWIRQPPGKGLEWIGYDHYSGSTNYNPSLKSRVTISRDTSKNQFSLKLSSVTAADTAVYYCARNYGSIYVNYFDYWGQGTLVTVSS VL: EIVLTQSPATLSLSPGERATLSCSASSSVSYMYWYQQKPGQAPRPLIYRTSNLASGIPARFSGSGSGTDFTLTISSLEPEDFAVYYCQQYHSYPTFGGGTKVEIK"
metricname = "Kd"
testresult = 2.17

[[record]]
binder = "SA301a HC-Y50L (antibody, name in Kabat numbering, V domains shown, IgG1 kappa) VH: QVQLQESGPGLVKPSQTLSLTCTVSGYSITSDYNSHWIRQPPGKGLEWIGLIHYSGSTNYNPSLKSRVTISRDTSKNQFSLKLSSVTAADTAVYYCARNYGSIYVNYFDYWGQGTLVTVSS VL: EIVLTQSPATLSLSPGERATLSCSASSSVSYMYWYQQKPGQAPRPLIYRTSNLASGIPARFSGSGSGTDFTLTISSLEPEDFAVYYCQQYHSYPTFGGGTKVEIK"
metricname = "Kd"
testresult = 1.7

[[record]]
binder = "SA301a HC-I51L (antibody, name in Kabat numbering, V domains shown, IgG1 kappa) VH: QVQLQESGPGLVKPSQTLSLTCTVSGYSITSDYNSHWIRQPPGKGLEWIGYLHYSGSTNYNPSLKSRVTISRDTSKNQFSLKLSSVTAADTAVYYCARNYGSIYVNYFDYWGQGTLVTVSS VL: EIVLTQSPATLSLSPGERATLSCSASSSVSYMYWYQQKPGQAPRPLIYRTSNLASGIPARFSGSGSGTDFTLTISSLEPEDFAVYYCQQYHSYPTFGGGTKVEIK"
metricname = "Kd"
testresult = 0.64

[[record]]
binder = "SA301a HC-H52S (antibody, name in Kabat numbering, V domains shown, IgG1 kappa) VH: QVQLQESGPGLVKPSQTLSLTCTVSGYSITSDYNSHWIRQPPGKGLEWIGYISYSGSTNYNPSLKSRVTISRDTSKNQFSLKLSSVTAADTAVYYCARNYGSIYVNYFDYWGQGTLVTVSS VL: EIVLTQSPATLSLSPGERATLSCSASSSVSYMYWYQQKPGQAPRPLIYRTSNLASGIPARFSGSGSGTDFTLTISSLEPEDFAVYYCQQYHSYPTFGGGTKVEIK"
metricname = "Kd"
testresult = 1.16

